Test system: Streptococcus sp.
Experiment: In vitro antibacterial evaluation: minimum inhibitory concentration (MIC), broth dilution method
Type: cell-based
Conditions: broth dilution, inoculum 5×10^5 CFU/mL, 18 hours at 35° C.
Examples of compounds with documented MIC Streptococcus pneumoniae (ATCC 6301) follow.
Write down the numeric answer in µg/mL and omit the unit.

• CC(C)=CCN1CC(C(O)C2NC(=O)C(C(O)C3CNC(=N)N3)NC(=O)C(Cc3ccc(OC4OC(CO)C(OC5OC6COC7(OC6C(O)C5O)C5CC6CC(C5)CC7C6)C(O)C4O)cc3)NC(=O)C(C(C)c3ccccc3)NC(=O)CNC(=O)C(CO)NC2=O)N(C2OC(CO)C(O)C(O)C2O)C1=N (stereo not shown) [Example 225] = 0.5
• CC(c1ccccc1)C1NC(=O)CNC(=O)C(CO)NC(=O)C(CC2CNC(=N)N2C2OC(CO)C(O)C(O)C2O)NC(=O)C(CC2CNC(=N)N2)NC(=O)C(Cc2ccc(OC3OC(CO)C(OC4OC(CO)C(OCc5ccc(OCc6ccccc6)cc5)C(O)C4O)C(O)C3O)cc2)NC1=O (stereo not shown) [Example 246a] = 0.25

Now turn to the next compound.
Asked: Fill in: MIC Streptococcus pneumoniae (ATCC 6301) of COc1ccc(COCC2OC(OC3C(CO)OC(Oc4ccc(CC5NC(=O)C(C(C)c6ccccc6)NC(=O)CNC(=O)C(CO)NC(=O)C(C(O)C6CNC(=N)N6C6OC(CO)C(O)C(O)C6O)NC(=O)C(C(O)C6CNC(=N)N6)NC5=O)cc4)C(O)C3O)C(O)C(O)C2O)cc1F (stereo not shown) [Example 237] is ___
Given back: 0.5

====

Tested on: Streptococcus sp.
Test: In vitro antibacterial evaluation: minimum inhibitory concentration (MIC), broth dilution method
Assay type: cell-based
Conditions: strain GC 4563
readout.kind: MIC Streptococcus pyogenes (GC 4563) (µg/mL)
Write down the numeric answer in µg/mL and omit the unit.

- CC(c1ccccc1)C1NC(=O)CNC(=O)C(CO)NC(=O)C(C(O)C2CN(CCCCCCCCCCC(=O)O)C(=N)N2C2OC(CO)C(O)C(O)C2O)NC(=O)C(C(O)C2CNC(=N)N2)NC(=O)C(Cc2ccc(OC3OC(CO)C(OC4OC(CO)C(O)C(O)C4O)C(O)C3O)cc2)NC1=O (stereo not drawn): 64

Asked: Fill in: MIC Streptococcus pyogenes (GC 4563) of CC(c1ccccc1)C1NC(=O)CNC(=O)C(CO)NC(=O)C(C(O)C2CN(Cc3ccc(-c4ccccc4)cc3)C(=N)N2C2OC(CO)C(O)C(O)C2O)NC(=O)C(C(O)C2CNC(=NCc3ccc(-c4ccccc4)cc3)N2Cc2ccc(-c3ccccc3)cc2)NC(=O)C(Cc2ccc(OC3OC(CO)C(OC4OC(CO)C(O)C(O)C4O)C(O)C3O)cc2)NC1=O (stereo not drawn) is ___
Given back: 16

====

Test: Anatomic pathology (heart and kidney histopathology) in mice
Assay type: in vivo, CD-1 mice
Conditions: 20 mg/kg intravenously daily for 9 days, microscopic histopathology on day 10
Numbered stars: 1 amine (or outer) side, 2 acyl side, 3 side chain; on linkers, the order of the positions; unused ones are H or OH. Square brackets hold non-standard residues; d marks the D form. Peptide text beside a SMILES is read from it. * marks the point of attachment. ξ: configuration not given here. X1 = N=C1NCC(C(O)C(N[*:1])C(=O)[*:2])N1C1OC(CO)C(O)C(O)C1O; ξEnduracididine(βξ-OH,4'ξ) = N=C1NCC(C(O)C(N)C(=O)O)N1; X2 = OCC1OC(OC2C(CO)OC(*)C(O)C2O)C(O)C(O)C1O; Cha = N[CH](CC1CCCCC1)C(=O)O
readout.kind: Anatomical Pathology (Day 10), Kidney

See these solved cases before continuing.
- Cc1ccc(Oc2cccc(-c3nc4cc(CC5NC(=O)C(C(C)c6ccccc6)NC(=O)CNC(=O)C(CO)NC(=O)C(C(O)C6CNC(=N)N6C6OC(CO)C(O)C(O)C6O)NC(=O)C(C(O)C6CNC(=N)N6)NC5=O)ccc4o3)c2)cc1 (centres unmarked): 0
- COc1ccc2cc(COCC3OC(OC4C(CO)OC(Oc5ccc(CC6NC(=O)C(C(C)c7ccccc7)NC(=O)CNC(=O)C(CO)NC(=O)C(C(O)C7CNC(=N)N7C7OC(CO)C(O)C(O)C7O)NC(=O)C(C(O)C7CNC(=N)N7)NC6=O)cc5)C(O)C4O)C(O)C(O)C3O)ccc2c1 (centres unmarked): +++
- CC(c1ccccc1)C1NC(=O)CNC(=O)C(CO)NC(=O)C(C(O)C2CN(Cc3ccc(-c4ccccc4)cc3)C(=N)N2C2OC(CO)C(O)C(O)C2O)NC(=O)C(C(O)C2CNC(=N)N2)NC(=O)C(Cc2ccc(OC3OC(CO)C(OC4OC(CO)C(O)C(O)C4O)C(O)C3O)cc2)NC1=O (centres unmarked) [Example 66a]: ++
- CC(c1ccccc1)C1NC(=O)CNC(=O)C(CO)NC(=O)C(C(O)C2CN(Cc3ccc(C(C)(C)C)cc3)C(=N)N2C2OC(CO)C(O)C(O)C2O)NC(=O)C(C(O)C2CNC(=N)N2)NC(=O)C(Cc2ccc(OC3OC(CO)C(OC4OC(CO)C(O)C(O)C4O)C(O)C3O)cc2)NC1=O (centres unmarked): 0
- CC(c1ccccc1)C1NC(=O)CNC(=O)C(CO)NC(=O)C(C(O)C2CN(CCCCCCCCCCCCO)C(=N)N2C2OC(CO)C(O)C(O)C2O)NC(=O)C(C(O)C2CNC(=N)N2)NC(=O)C(Cc2ccc(OC3OC(CO)C(OC4OC(CO)C(O)C(O)C4O)C(O)C3O)cc2)NC1=O (centres unmarked): +++
- CC(c1ccccc1)C1NC(=O)CNC(=O)C(CO)NC(=O)C(C(O)C2CNC(=N)N2C2OC(CO)C(O)C(O)C2O)NC(=O)C(C(O)C2CNC(=N)N2)NC(=O)C(Cc2ccc(OC3OC(CO)C(OC4OC5COC6(OC5C(O)C4O)C4CC5CC(C4)CC6C5)C(O)C3O)cc2)NC1=O (centres unmarked): +++
- CC(C1CCCCC1)C1NC(=O)CNC(=O)C(CO)NC(=O)C(C(O)C2CNC(=N)N2C2OC(CO)C(O)C(O)C2O)NC(=O)C(C(O)C2CNC(=N)N2)NC(=O)C(Cc2ccc(OC3OC(CO)C(OC4OC5COC6(OC5C(O)C4O)C4CC5CC(C4)CC6C5)C(O)C3O)cc2)NC1=O (centres unmarked): 0
- N=C1NCC(C(O)C2NC(=O)C(CC3CCCCC3)NC(=O)C(CC3CCCCC3)NC(=O)CNC(=O)C(CO)NC(=O)C(C(O)C3CNC(=N)N3C3OC(CO)C(O)C(O)C3O)NC2=O)N1 (stereo not drawn) [Example 52] (cyclo(G[Cha][Cha][ξEnduracididine(βξ-OH,4'ξ)][X1]S); configuration not given here): +++

Asked: Fill in: Anatomical Pathology (Day 10), Kidney of N=C1NCC(C(O)C2NC(=O)C(Cc3ccc(OC4OC(CO)C(OC5OC(CO)C(O)C(O)C5O)C(O)C4O)cc3)NC(=O)C(CC3CCCCC3)NC(=O)CNC(=O)C(CO)NC(=O)C(C(O)C3CNC(=N)N3C3OC(CO)C(O)C(O)C3O)NC2=O)N1 (stereo not drawn) [Example 263] (cyclo(G[Cha]Y(X2)[ξEnduracididine(βξ-OH,4'ξ)][X1]S); configuration not given here) is ___
Given back: ++

Asked: Fill in: Anatomical Pathology (Day 10), Kidney of N=C1NCC(C(O)C2NC(=O)C(Cc3ccc(OC4OC(CO)C(OC5OC6COC7(OC6C(O)C5O)C5CC6CC(C5)CC7C6)C(O)C4O)cc3)NC(=O)C(Cc3ccccc3)NC(=O)CNC(=O)C(CO)NC(=O)C(C(O)C3CNC(=N)N3C3OC(CO)C(O)C(O)C3O)NC2=O)N1 (centres unmarked) is ___
Given back: +++

Asked: Fill in: Anatomical Pathology (Day 10), Kidney of CN=C1N(C)CC(C(O)C2NC(=O)C(Cc3ccc(OC4OC(CO)C(OC5OC6COC7(OC6C(O)C5O)C5CC6CC(C5)CC7C6)C(O)C4O)cc3)NC(=O)C(C(C)c3ccccc3)NC(=O)CNC(=O)C(CO)NC(=O)C(C(O)C3CN(C)C(=NC)N3C3OC(CO)C(O)C(O)C3O)NC2=O)N1C (centres unmarked) is ___
Given back: 0

====

Tested on: Escherichia coli
Experiment: In vitro antibacterial evaluation: minimum inhibitory concentration (MIC), broth dilution method
Type: cell-based
Conditions: strain GC 4559
Examples of compounds with documented MIC Escherichia coli (GC 4559) follow.

- CC(c1ccccc1)C1NC(=O)CNC(=O)C(CO)NC(=O)C(C(O)C2CNC(=N)N2C2OC(CO)C(O)C(O)C2O)NC(=O)C(C(O)C2CNC(=N)N2)NC(=O)C(Cc2ccc(OC3OC(CO)C(OC4OC5COC(c6cccc(OCc7ccc([N+](=O)[O-])cc7)c6)OC5C(O)C4O)C(O)C3O)cc2)NC1=O (stereo not shown): >64 mg/L
- CCCCCC(=O)OCC1OC(Oc2ccc(CC3NC(=O)C(C(C)c4ccccc4)NC(=O)CNC(=O)C(CO)NC(=O)C(C(O)C4CNC(=N)N4C4OC(CO)C(O)C(O)C4O)NC(=O)C(C(O)C4CNC(=N)N4)NC3=O)cc2)C(O)C(O)C1OC1OC(CO)C(O)C(O)C1O (stereo not shown) [Example 95a]: >64 mg/L

Asked: Fill in: MIC Escherichia coli (GC 4559) of CC(c1ccccc1)C1NC(=O)CNC(=O)C(CO)NC(=O)C(C(O)C2CNC(=N)N2C2OC(CO)C(O)C(O)C2O)NC(=O)C(C(O)C2CNC(=N)N2)NC(=O)C(Cc2ccc(OC3OC(CO)C(OC4OC5COC(c6ccc(C(=O)c7ccccc7)cc6)OC5C(O)C4O)C(O)C3O)cc2)NC1=O (stereo not shown) is ___
Given back: 16 mg/L

Asked: Fill in: MIC Escherichia coli (GC 4559) of CC(c1ccccc1)C1NC(=O)CNC(=O)C(CO)NC(=O)C(C(O)C2CN(c3nc4ccccc4s3)C(=N)N2C2OC(CO)C(O)C(O)C2O)NC(=O)C(C(O)C2CNC(=Nc3nc4ccccc4s3)N2)NC(=O)C(Cc2ccc(OC3OC(CO)C(OC4OC(CO)C(O)C(O)C4O)C(O)C3O)cc2)NC1=O (stereo not shown) is ___
Given back: >64 mg/L
